Data origin, for the record: paper PMC9645637

target: An. arabiensis AChE (Anopheles gambiae); assay: AChE assay (modified Ellman assay), mosquito homogenate; format: biochemical
readout: IC50 (nM)
Expressed in nM, but write only the number.

I'd like to know its IC50. The compound in question is CNC(=O)Oc1ccccc1OC(C)C [Propoxur, propoxur, reference compound]
780

###

system: Artemia franciscana; details: read-out: Brine shrimp LC50 (95% confidence interval); Artemia franciscana nauplii, 24 h
readout: LC50 (nM)
Expressed in nM, but write only the number.

I'd like to know its LC50. The molecule in question is [K+].[K+].[O]=[Cr](=[O])([O-])[O][Cr](=[O])(=[O])[O-] [potassium dichromate]
4

###

biological target: An. gambiae AChE (Anopheles gambiae, UniProt Q869C3); construct: Mosquitoes from the four Anopheles colonies were separately homogenized in Na2HPO4, 1% Triton X-100 (pH 8.0) and used as an enzyme source; from tissue; host or cells: whole mosquito homogenate (An. gambiae colony); assay: AChE assay (modified Ellman assay), mosquito homogenate; type: biochemical
Sequence (Q869C3 39-737): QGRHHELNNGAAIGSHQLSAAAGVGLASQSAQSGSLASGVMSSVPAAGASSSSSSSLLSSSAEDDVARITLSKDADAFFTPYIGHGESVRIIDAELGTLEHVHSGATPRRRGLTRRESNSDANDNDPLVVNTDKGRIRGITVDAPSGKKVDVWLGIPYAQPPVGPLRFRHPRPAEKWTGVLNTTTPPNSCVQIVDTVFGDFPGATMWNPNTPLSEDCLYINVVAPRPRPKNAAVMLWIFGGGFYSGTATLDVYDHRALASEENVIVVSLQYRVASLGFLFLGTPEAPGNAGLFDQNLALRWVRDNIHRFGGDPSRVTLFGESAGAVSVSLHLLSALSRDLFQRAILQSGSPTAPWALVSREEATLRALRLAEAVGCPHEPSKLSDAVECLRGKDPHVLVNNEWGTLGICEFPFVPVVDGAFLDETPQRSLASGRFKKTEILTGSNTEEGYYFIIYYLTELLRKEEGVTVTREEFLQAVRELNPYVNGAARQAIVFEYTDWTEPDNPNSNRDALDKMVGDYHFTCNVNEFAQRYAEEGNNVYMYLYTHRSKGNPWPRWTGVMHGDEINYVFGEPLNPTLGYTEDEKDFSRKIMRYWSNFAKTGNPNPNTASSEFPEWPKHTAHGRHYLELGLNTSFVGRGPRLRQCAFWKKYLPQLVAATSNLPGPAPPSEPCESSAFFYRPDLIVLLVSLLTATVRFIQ
readout: pIC50
Hey, just a heads up that pIC50 is the negative log base 10 of the concentration in molar.

I'd like to know its pIC50. The compound in question is CNC(=O)Oc1ccccc1OC(C)C [Propoxur, propoxur, reference compound]
4.58

###

test system: An. funestus (FUMOZ) larvae; experiment: Larvicidal assay (WHO bioassay for mosquito larvicides); settings: read-out: Larvicidal LC50 (95% confidence interval range); An. funestus (FUMOZ) third-instar larvae
Kindly supply the reported LC50 values for the records listed here.
Expressed in µM, but write only the number.

I'd like to know its LC50. The molecule in question is O=C(NCCN1CCCCC1)C1CCN(Cc2ccccc2)CC1 [derivative 8]
0.8

How about this molecule: O=C(NCCN1CCOCC1)C1CCN(Cc2ccccc2)CC1 [derivative 1]
2.65

How about this molecule: CNC(=O)Oc1ccccc1OC(C)C [Propoxur, propoxur, reference compound]
9.9

###

Kindly supply the reported IC50 values for the records listed here.
biological target: electric eel AChE (Electrophorus electricus, UniProt O42275); assay: AChE assay (modified Ellman assay), electric eel AChE; type: biochemical; conditions: read-out: Electric eel AChE inhibition IC50 ± SE (95% confidence interval range)
Sequence (O42275 24-633): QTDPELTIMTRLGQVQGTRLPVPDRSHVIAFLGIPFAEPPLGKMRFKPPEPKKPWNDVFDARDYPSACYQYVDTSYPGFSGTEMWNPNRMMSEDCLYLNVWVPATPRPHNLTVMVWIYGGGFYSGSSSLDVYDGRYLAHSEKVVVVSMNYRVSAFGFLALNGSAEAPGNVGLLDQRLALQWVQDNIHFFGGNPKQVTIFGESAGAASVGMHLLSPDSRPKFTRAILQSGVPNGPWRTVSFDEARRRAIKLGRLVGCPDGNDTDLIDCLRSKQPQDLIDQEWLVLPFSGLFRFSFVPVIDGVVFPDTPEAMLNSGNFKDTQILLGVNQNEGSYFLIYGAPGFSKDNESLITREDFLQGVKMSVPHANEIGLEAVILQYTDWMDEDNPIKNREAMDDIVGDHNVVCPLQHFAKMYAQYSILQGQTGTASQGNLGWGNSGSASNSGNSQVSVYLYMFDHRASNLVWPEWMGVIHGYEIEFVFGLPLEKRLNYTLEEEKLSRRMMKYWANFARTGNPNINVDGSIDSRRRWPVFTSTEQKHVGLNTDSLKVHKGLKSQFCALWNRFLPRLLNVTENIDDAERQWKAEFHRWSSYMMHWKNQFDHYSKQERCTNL
Expressed in µM, but write only the number.

Look up IC50 with electric eel AChE (Electrophorus electricus, UniProt O42275) for this molecule: `O=C(Nc1nccs1)C1CCN(Cc2ccccc2)CC1`
55.7

How about this molecule: `O=C(NCCN1CCCCC1)C1CCN(Cc2ccccc2)CC1`
88.3

###

molecular target: An. gambiae AChE (Anopheles gambiae); construct: Mosquitoes from the four Anopheles colonies were separately homogenized in Na2HPO4, 1% Triton X-100 (pH 8.0) and used as an enzyme source; from tissue; host or cells: whole mosquito homogenate (An. gambiae colony); assay: AChE assay (modified Ellman assay), mosquito homogenate; type: biochemical; conditions: An. gambiae homogenate; read-out: Anopheles AChE inhibition IC50 ± SE (95% confidence interval range)
readout: IC50 (µM)
Expressed in µM, but write only the number.

I'd like to know its IC50. The compound in question is `O=C(NCc1ccco1)C1CCN(Cc2ccccc2)CC1`
31.4

How about this compound: `O=C(NCCN1CCOCC1)C1CCN(Cc2ccccc2)CC1`
48.9

How about this compound: `O=C(NCCN1CCCCC1)C1CCN(Cc2ccccc2)CC1`
28.1

###

molecular target: An. arabiensis AChE (Anopheles gambiae, UniProt Q869C3); assay: AChE assay (modified Ellman assay), mosquito homogenate; assay type: biochemical; conditions: An. arabiensis homogenate; read-out: Anopheles AChE inhibition IC50 ± SE (95% confidence interval range)
Sequence (Q869C3 162-698 limits assumed): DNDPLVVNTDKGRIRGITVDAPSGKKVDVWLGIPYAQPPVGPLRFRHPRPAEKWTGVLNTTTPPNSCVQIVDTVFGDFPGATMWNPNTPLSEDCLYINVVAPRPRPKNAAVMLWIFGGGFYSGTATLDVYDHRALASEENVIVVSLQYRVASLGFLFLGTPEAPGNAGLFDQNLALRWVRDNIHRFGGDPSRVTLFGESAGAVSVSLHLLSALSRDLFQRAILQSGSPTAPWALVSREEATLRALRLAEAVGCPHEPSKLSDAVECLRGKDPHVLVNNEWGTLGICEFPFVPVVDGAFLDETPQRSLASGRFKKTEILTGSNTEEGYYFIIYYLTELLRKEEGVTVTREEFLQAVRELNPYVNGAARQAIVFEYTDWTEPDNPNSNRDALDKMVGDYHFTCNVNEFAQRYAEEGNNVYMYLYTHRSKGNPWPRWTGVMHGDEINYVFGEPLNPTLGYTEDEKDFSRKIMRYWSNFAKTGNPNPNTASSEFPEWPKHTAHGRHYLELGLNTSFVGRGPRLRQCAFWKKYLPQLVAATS
pIC50: −log10 of the molar value.
readout: pIC50

I'd like to know its pIC50. The molecule in question is `O=C(NCCN1CCCCC1)C1CCN(Cc2ccccc2)CC1`
< 4.00

How about this molecule: `O=C(Nc1nccs1)C1CCN(Cc2ccccc2)CC1`
5.22

How about this molecule: `O=C(NCCN1CCOCC1)C1CCN(Cc2ccccc2)CC1`
< 4.00

How about this molecule: `O=C(NCc1ccco1)C1CCN(Cc2ccccc2)CC1`
< 4.00

###

Kindly supply the reported LC50 values for the records listed here.
test system: An. funestus (FUMOZ) larvae; assay: Larvicidal assay (WHO bioassay for mosquito larvicides); conditions: read-out: Larvicidal LC50 (95% confidence interval range); An. funestus (FUMOZ) third-instar larvae

I'd like to know its LC50. The compound in question is O=C(NC1CCCc2ccccc21)C1CCN(Cc2ccccc2)CC1 (centres unmarked)
> 100 µM

How about this compound: `O=C(NCc1ccncc1)C1CCN(Cc2ccccc2)CC1`
> 100 µM

How about this compound: `O=C(NCc1ccco1)C1CCN(Cc2ccccc2)CC1`
2.96 µM

How about this compound: `COc1cc(CCNC(=O)C2CCN(Cc3ccccc3)CC2)cc(OC)c1OC`
> 100 µM

How about this compound: `O=C(NCc1cccnc1)C1CCN(Cc2ccccc2)CC1`
> 100 µM
